src = PubChem BioAssay (NCI)

The entries below are paired with their reported GI50.
test system: MDA-MB-231 breast; assay: NCI tumour cell line growth inhibition, 48 h

For the compound Cn1cnc([N+](=O)[O-])c1Sc1ncnc2c1ncn2C1OC(CO)C(O)C1O (stereo unspecified) , what GI50 is on record?
9.62 µM

For the compound `CC(C)(C)CC(C)(C)c1ccc(OCCOCCSC(=N)N)cc1` , what GI50 is on record?
1.34 µM

###

tested on: NCI-H460 lung; test: NCI tumour cell line growth inhibition, 48 h
Measurement Label: TGI

The examples below pair each entry with its known result.
# Compound, Subject Of Test, Reported Measurement
data = [
    ("COc1ccc(C(O)c2cc3c(N)c(C(=O)Nc4cccc(Br)c4)sc3nc2C)cc1 (stereo unspecified)", "NCI-H460 lung", "3.61 µM"),
    ("COc1ccc(/C=C2\\N=C3SC=C(N)N3C2=O)cc1", "NCI-H460 lung", "14 µM"),
    ("CCCCCCCSCC(O)COC(c1ccccc1)(c1ccccc1)c1ccccc1 (stereo unspecified)", "NCI-H460 lung", "> 100 µM"),
    ("COC(=O)C1=C(C(=O)OC)C2(C(=O)OC)OC1(OC)C(C1(C(=O)OC)C(C(=O)OC)=C1C(=O)OC)=C2C(=O)OC (stereo unspecified)", "NCI-H460 lung", "> 100 µM"),
    ("COC(=O)C1=C(C)NC(C)=C([N+](=O)[O-])C1c1cccc(NO)c1 (stereo unspecified)", "NCI-H460 lung", "17.5 µM"),
]

For the compound `Nc1ncc(Cc2nc3ccccc3s2)s1` , what TGI is on record?
> 100 µM

For the compound `COC1=C(OC)CCC(/C(C#N)=C/c2ccc(OC)c(OC)c2)=C1` , what TGI is on record?
> 100 µM

For the compound `COc1ccc2c(c1)OC13Oc4cc(OC)ccc4C=C1CCCC3=C2` , what TGI is on record?
> 100 µM

For the compound `CC(=O)N1CC(F)(F)c2c(Sc3ncc(N4CCC5(CC4)COC[C@H]5N)nc3N)cccc21` , what TGI is on record?
> 100 µM

For the compound `COc1cc([C@H]2Oc3c(c(O)cc4oc(-c5ccccc5)cc(=O)c34)O[C@@H]2CO)ccc1O` , what TGI is on record?
32.5 µM

For the compound CC[C@@H]1OC2(C)CC(S(=O)(=O)c3ccccc3)CC1O2 (stereo partly specified) , what TGI is on record?
> 100 µM

###

test system: SF-539 CNS; assay: NCI tumour cell line growth inhibition, 48 h
Measurement Label: TGI

# Compound, TGI
measured = [
    ("C/C(=N\\Nc1ccc([N+](=O)[O-])cc1)C(=O)N(C)Nc1ccccc1", "> 100 µM"),
]

Form field: TGI recorded for `CO[C@H]1O[C@@H]2CO[C@@H](c3ccccc3)O[C@H]2C[C@]12CCC/C=C\CO2` with SF-539 CNS (enter value)
29.1 µM

Form field: TGI recorded for `CCS/C(Nc1ccccc1)=C(\C#N)C(=O)Nc1ccc(OC)cc1` with SF-539 CNS (enter value)
4.81 µM

Form field: TGI recorded for Cc1cc(C)c(C(=O)OC(c2ccccc2)C(c2ccccc2)N2CCOCC2)c(C)c1 (stereo not given) with SF-539 CNS (enter value)
> 100 µM

Form field: TGI recorded for `Nc1ncc(Cc2nc3ccccc3s2)s1` with SF-539 CNS (enter value)
> 100 µM
